Provide the recorded abundance fitness for the entries that follow.
B1: Pre-mRNA-processing factor 40 homolog B, residues 274 to 332; numbered along this chain, Q6NWY9 (parent)
chain: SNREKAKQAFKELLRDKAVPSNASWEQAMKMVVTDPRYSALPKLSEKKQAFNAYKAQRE

variants of: B1; assay: abundance fitness (aPCA) (normalised: wild type 0, dead -1); higher = more abundant; growth selection in yeast, the domain comes from the species named; details: Homo sapiens

State the recorded abundance fitness for this entry: "W25A"
-0.244

Next variant up: "P42D"
-0.023

Next variant up: "P36L"
-0.63

Next variant up: "K43H"
-0.335

Next variant up: "K5Y"
-0.179

Next variant up: "N52L"
-0.04

Next variant up: "P20Y"
-0.641

Next variant up: "A23C"
-0.206
